test_summary: SRB viability assay, TKPTS cells
Assay type: cell-based
test_context: mouse, TKPTS non-tumour cell line, hypoxic conditions (1% O2)
Starred links: 1 amine or outer side, 2 acyl side, 3 side chain; linkers in the order of their positions; H or OH if unused. Positions of bridges follow the written chain, without caps; N, C: chain ends. Non-standard residues stand in square brackets, D forms with d. Residues, ends and D or L forms follow the SMILES beside them. Chains are numbered I, II in the order given. Actinocin(9to1) = Cc1c2oc3c(C)ccc(C(=O)[*:1])c3nc-2c(C(=O)[*:2])c(N)c1=O; NMeV = CN[C@H](C(=O)O)C(C)C; Sar = CNCC(=O)O
measurement_label: CC50 at 72 h (nM)

molecule | reported
Cc1c2oc3c(C)ccc(C(=O)N[C@@H]4C(=O)N[C@H](C(C)C)C(=O)N5CCC[C@H]5C(=O)N(C)CC(=O)N(C)[C@@H](C(C)C)C(=O)O[C@@H]4C)c3nc-2c(C(=O)N[C@@H]2C(=O)N[C@H](C(C)C)C(=O)N3CCC[C@H]3C(=O)N(C)CC(=O)N(C)[C@@H](C(C)C)C(=O)O[C@@H]2C)c(N)c1=O [Actinomycin, Actinomycin D, reference compound] (I: T[dV]P[Sar][NMeV] / II: T[dV]P[Sar][NMeV]; ester I:1-I:C, II:1-II:C; linker I:N-II:N via Actinocin(9to1)) | 3
